assay.target: human Gal-3 (Homo sapiens, UniProt P17931)
Construct: made in house; host or cells: Escherichia coli BL21 (DE3)
Sequence (P17931 whole entry): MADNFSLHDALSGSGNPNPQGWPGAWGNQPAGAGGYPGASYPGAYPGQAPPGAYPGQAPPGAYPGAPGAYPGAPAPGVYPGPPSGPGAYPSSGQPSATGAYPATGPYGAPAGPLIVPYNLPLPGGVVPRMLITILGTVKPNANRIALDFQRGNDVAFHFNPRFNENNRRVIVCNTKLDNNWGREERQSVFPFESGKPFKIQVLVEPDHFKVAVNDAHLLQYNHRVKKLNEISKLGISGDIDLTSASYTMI
protocol: Competitive solid-phase assay (SPA), immobilized asialofetuin, Gal-3
Format: binding
condition.summary: mean ± S.D., three independent experiments
Description: The assay was adapted from Rapoport et al. (2010) ([88]). Briefly, 96-well plates (flat-bottom) were coated with 10 μg/ml asialofetuin (ASF, Sigma-Aldrich) in sodium carbonate buffer (pH 9.6) and incubated overnight at 4 °C. […] After washing, galectins were detected using the corresponding antigalectin primary detection antibodies in PBS-BSA 0.3% w/v (1 h at RT). […] Absorbance was determined at 450 nm in a Multiskan MS microplate reader (Thermo Fisher Scientific).
Sorting guide: entries reporting IC50 beneath 3 mM go in the true pile, the rest go in the false pile.

INSERT INTO measurements (compound, assigned_category) VALUES
  ('CC(=O)NC1C(O)OC(CO)C(OC2OC(CO)C(O)C(O)C2O)C1O (stereo not shown)', 'true'),
  ('CC(=O)NC1C(O)CC(OC2C(O)C(CO)OC(OC3C(CO)OC(O)C(O)C3O)C2O)(C(=O)O)OC1C(O)C(O)CO (stereo not shown)', 'false'),
  ('CC(=O)NC1C(OC2C(O)C(CO)OC(OC3C(CO)OC(O)C(O)C3OC3OC(C)C(O)C(O)C3O)C2O)OC(CO)C(O)C1OC1OC(CO)C(O)C(O)C1O (stereo not shown)', 'true'),
  ('CC(=O)NC1C(O)OC(CO)C(OC2OC(CO)C(O)C(O)C2O)C1OC1OC(C)C(O)C(O)C1O (stereo not shown) [Le^X, Lewis X trisaccharide]', 'false'),
  ('CC(=O)NC1C(O)OC(CO)C(OC2OC(CO)C(O)C(OC3(C(=O)O)CC(O)C(NC(C)=O)C(C(O)C(O)CO)O3)C2O)C1O (stereo not shown)', 'false'),
  ('CC1OC(OC2C(OC3C(CO)OC(O)C(O)C3O)OC(CO)C(O)C2O)C(O)C(O)C1O (stereo not shown)', 'false'),
  ('CC(=O)NC1C(OC2C(O)C(CO)OC(OC3C(CO)OC(O)C(O)C3O)C2OC2OC(C)C(O)C(O)C2O)OC(CO)C(O)C1O (stereo not shown) [BGA6, blood group A antigen tetraose 6]', 'true'),
  ('CC(=O)NC1C(O)OC(CO)C(OC2OC(CO)C(O)C(OC3OC(CO)C(O)C(O)C3NC(C)=O)C2OC2OC(C)C(O)C(O)C2O)C1O (stereo not shown) [BGA2, blood group A antigen 2]', 'true'),
  ('CC(=O)NC1C(OC2C(O)C(CO)OC(OC3C(O)C(CO)OC(O)C3NC(C)=O)C2OC2OC(C)C(O)C(O)C2O)OC(CO)C(O)C1O (stereo not shown) [BGA1, blood group A antigen 1]', 'true'),
  ('CC(=O)NC1C(OC2C(O)C(CO)OC(OC3C(CO)OC(O)C(O)C3OC3OC(C)C(O)C(O)C3O)C2O)OC(CO)C(OC2OC(C)C(O)C(O)C2O)C1OC1OC(CO)C(O)C(O)C1O (stereo not shown) [LAH, Lewis A antigen hexaose]', 'false');
